Assignment: determine reported bioavailability for the given molecules.
- test: Oral bioavailability in cannulated Sprague-Dawley rat plasma at 15 mg/kg administered via gavage measured up to 24 hrs post dose by LC/MS/MS analysis
- Type: ADME, organism-based
Numbers only, in %.

Consider the reported bioavailability for these molecules:
Reported bioavailability of COc1cnc(O[C@@H]2C[C@@H](C(=O)N[C@]3(C(=O)NS(=O)(=O)C4CC4)C[C@H]3C3CC3)N(C(=O)[C@@H](NC(=O)O[C@H](C)C(F)(F)F)C3CCCC3)C2)c2cc(Cl)ccc12 : 66

Quick note, bioavailability for COc1cnc(O[C@@H]2C[C@@H](C(=O)N[C@]3(C(=O)NS(=O)(=O)C4CC4)C[C@H]3C3CC3)N(C(=O)[C@@H](NC(=O)O[C@H](C)C(F)(F)F)C(C)(C)C)C2)c2cccc(Cl)c12 landed at 122

Kindly review the next molecule as well.
Memo: COc1cnc(O[C@@H]2C[C@@H](C(=O)N[C@]3(C(=O)NS(=O)(=O)C4CC4)C[C@H]3C3CC3)N(C(=O)[C@@H](NC(=O)OC(C)(C)C)C(C)(C)C)C2)c2cc(Cl)ccc12 , reported bioavailability: 44.2

---

- test: Clearance in cannulated Sprague-Dawley rat plasma at 5 mg/kg, iv administered as 10 mins infusion measured up to 24 hrs post dose by LC/MS/MS analysis
- Format: ADME, organism-based
Record form. Attribute: clearance. Fill in for each entry.

For COc1cnc(O[C@@H]2C[C@@H](C(=O)N[C@]3(C(=O)NS(=O)(=O)C4CC4)C[C@H]3C3CC3)N(C(=O)[C@@H](NC(=O)OC(C)(C)C)C(C)(C)C)C2)c2cc(Cl)ccc12 the compound record lists clearance as 5 to 5.2 mL/min/kg

The value of clearance measured for the compound C=C[C@@H]1C[C@]1(NC(=O)[C@@H]1C[C@@H](Oc2ncc(OC)c3ccc(Cl)cc23)CN1C(=O)[C@@H](NC(=O)OC(C)(C)C)C(C)(C)C)C(=O)NS(=O)(=O)C1CC1 turned out to be 38 to 38.4 mL/min/kg

More entries:
Value of measured clearance for the entry COc1cnc(O[C@@H]2C[C@@H](C(=O)N[C@]3(C(=O)NS(=O)(=O)C4CC4)C[C@H]3C3CC3)N(C(=O)[C@@H](NC(=O)O[C@H](C)C(F)(F)F)C(C)(C)C)C2)c2cccc(Cl)c12 : 40.4 to 40.7 mL/min/kg

---

- test: Drug uptake in cannulated Sprague-Dawley rat liver at 15 mg/kg administered via oral gavage measured at 24 hrs post dose by LC/MS/MS analysis
- Type: ADME, organism-based
- cond: read-out: Drug uptake
Exercise: state measured concentration at 24 h for each of the compounds provided.
Give bare numbers, in µM.

Example entries begin here.
# concentration at 24 h of COc1cnc(O[C@@H]2C[C@@H](C(=O)N[C@]3(C(=O)NS(=O)(=O)C4CC4)C[C@H]3C3CC3)N(C(=O)[C@@H](NC(=O)OC(C)(C)C(F)(F)F)C(C)(C)C)C2)c2cc(Cl)ccc12 = 55.3

The reported concentration at 24 h of the compound COc1cnc(O[C@@H]2C[C@@H](C(=O)N[C@]3(C(=O)NS(=O)(=O)C4CC4)C[C@H]3C3CC3)N(C(=O)[C@@H](NC(=O)O[C@H](C)C(F)(F)F)C3CCCCC3)C2)c2cc(Cl)ccc12 was 51

Okay, now this compound:
Documented concentration at 24 h of C=C[C@@H]1C[C@]1(NC(=O)[C@@H]1C[C@@H](Oc2nccc3cc(OC)ccc23)CN1C(=O)[C@@H](NC(=O)OC(C)(C)C)C(C)(C)C)C(=O)NS(=O)(=O)C1CC1 : 0.74

Reference source: ChEMBL document CHEMBL3861981
